Hello, the source for this data is the supplement of paper PMC12076712, in case you need it.

Please go through the items and note down their pIC50.
- system: DDR2 (UniProt Q16832)
- Sequence (Q16832 whole entry): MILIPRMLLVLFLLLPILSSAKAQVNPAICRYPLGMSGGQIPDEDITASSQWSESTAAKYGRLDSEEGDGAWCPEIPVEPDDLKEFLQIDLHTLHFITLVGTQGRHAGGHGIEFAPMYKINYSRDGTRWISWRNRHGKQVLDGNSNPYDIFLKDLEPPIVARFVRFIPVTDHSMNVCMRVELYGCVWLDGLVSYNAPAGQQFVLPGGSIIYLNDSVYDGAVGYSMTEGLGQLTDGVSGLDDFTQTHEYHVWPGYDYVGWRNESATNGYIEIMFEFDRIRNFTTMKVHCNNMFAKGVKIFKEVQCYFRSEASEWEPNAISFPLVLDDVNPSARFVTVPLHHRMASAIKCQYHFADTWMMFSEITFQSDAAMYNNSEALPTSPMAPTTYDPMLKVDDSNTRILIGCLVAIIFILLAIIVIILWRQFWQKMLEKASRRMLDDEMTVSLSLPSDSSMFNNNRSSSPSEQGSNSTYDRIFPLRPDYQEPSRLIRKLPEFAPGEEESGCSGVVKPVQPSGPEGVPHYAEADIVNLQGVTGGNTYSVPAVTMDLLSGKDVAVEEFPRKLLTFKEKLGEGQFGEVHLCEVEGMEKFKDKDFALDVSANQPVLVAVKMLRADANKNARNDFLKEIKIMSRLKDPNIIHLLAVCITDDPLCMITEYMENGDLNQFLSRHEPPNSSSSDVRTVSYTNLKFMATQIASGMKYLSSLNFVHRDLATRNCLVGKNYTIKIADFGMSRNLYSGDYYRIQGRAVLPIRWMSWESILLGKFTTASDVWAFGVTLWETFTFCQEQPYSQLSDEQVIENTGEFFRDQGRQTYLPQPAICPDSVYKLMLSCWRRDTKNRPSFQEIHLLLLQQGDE
- experiment: pIC50, kinobeads binding competition
- condition: cell material: Lysate mix

Incoming: Any idea what pIC50 was measured for O=C(NCCNC(=O)c1cc(Nc2cc(C3CC3)[nH]n2)nc(N2CCN(Cc3ccc(S(=O)(=O)F)cc3)CC2)n1)OC1CC/C=C/CCC1 (stereo unspecified) ?
Outgoing: < 4.52

Incoming: Query (molecule): Cc1cc(Nc2cc(C(=O)NCCNC(=O)OC3CC/C=C/CCC3)nc(N3CCN(Cc4ccc(S(=O)(=O)F)cc4)CC3)n2)n[nH]1 (stereo unspecified) ; field requested: pIC50
Outgoing: < 4.52

Incoming: For the molecule shown here, CCNC(=O)c1cc(Nc2cc(C)[nH]n2)nc(N2CCN(Cc3ccc(S(=O)(=O)F)cc3)CC2)n1 , give the reported pIC50.
Outgoing: < 4.52

Incoming: Data request, read-out pIC50, for CCNC(=O)c1cc(Nc2cc(C3CC3)[nH]n2)nc(N2CCN(Cc3ccc(S(=O)(=O)F)cc3)CC2)n1
Outgoing: 4.57

Incoming: pIC50 lookup needed for C#CCNC(=O)c1cc(Nc2cc(C3CC3)[nH]n2)nc(N2CCN(Cc3ccc(S(=O)(=O)F)cc3)CC2)n1 , thanks.
Outgoing: < 4.52

Incoming: What measured pIC50 goes with C#CCNC(=O)c1cc(Nc2cc(C)[nH]n2)nc(N2CCN(Cc3ccc(S(=O)(=O)F)cc3)CC2)n1 ?
Outgoing: < 4.52
